- Measurement notes: A CellTox Green Cytotoxicity Assay to monitor cytotoxicity in HepG2 cells - 16 hour (AID 1224876); note: nearly all actives have a fitted effect of over 45% in size
- Condition notes: CellTox Green fluorescence; series mostly up to 76.8 µM
Inconclusive results are not listed. Active and inactive are the calls of the source. Calls come from the whole dose curve; as a rule, active = well fitted activation curve with a large enough effect in the repeat runs; inconclusive = weak or mixed curves; inactive = flat fitted curve, though single readings scatter.
Pick one: active, inactive

// below: answered compounds
Compound	Label value
CC1=C(CC=O)C(C)(C)CCC1	inactive
O=C1NC(=O)c2cc([N+](=O)[O-])ccc21	inactive
C[C@H]1c2cccc(O)c2C(O)=C2C(=O)[C@]3(O)C(O)=C(C(N)=O)C(=O)[C@@H](N(C)C)[C@@H]3[C@@H](O)[C@@H]21	inactive
CC(C)=CC(=O)C=C(C)C	inactive
c1ccc2c(c1)CCc1ccccc1N2	inactive

Now turn to the next compound.
For `O=C1CCCCCCCCCCOCCCCO1` , what call appears in the results of this test?
inactive

----------
- Tested target: Cytochrome P450 2C19 (Homo sapiens)
- Measurement notes: Cytochrome P450 Family 2 Subfamily C Member 19 (CYP2C19) small molecule antagonists: luciferase reporter qHTS assay (AID 1671197); note: nearly all actives have a fitted effect of over 65% in size
- Condition notes: P450-Glo CYP2C19 enzyme, luciferin luminescence, 1 h; series mostly up to 52.9 µM
Inconclusive results are not listed. Calls of active or inactive are those of the source. Calls come from the whole dose curve; as a rule, active = well fitted inhibition curve with a large enough effect in the repeat runs; inconclusive = weak or mixed curves; inactive = no such curve, though single readings can be large or run the other way.
Pick one: TRUE = active, FALSE = inactive

// below: answered compounds
Compound	Label value
O=C(Nc1cccc2c(=O)cc(-c3nn[nH]n3)oc12)c1ccc(OCCCCc2ccccc2)cc1	FALSE
CCC(OCCCOC)OC(C)=O (stereo not drawn)	FALSE
CCCCCC#CC(=O)OC	FALSE
COC(=O)C1=C(C)NC(C)=C(C(=O)O[C@@H]2CCCN(Cc3ccccc3)C2)[C@@H]1c1cccc([N+](=O)[O-])c1	TRUE
CCOC(=O)/C=C/C(=O)OCC	FALSE

For `CC(=O)OCC(=O)NCCCOc1cccc(CN2CCCCC2)c1` , what call appears in the results of this test?
FALSE

For `O=C1c2ccccc2C(=O)C1c1ccc(Br)cc1` , what call appears in the results of this test?
TRUE

----------
- Measurement notes: qHTS assay to identify small molecule antagonists of the sonic hedgehog signaling (Shh) pathway (AID 1259369); note: nearly all actives have a fitted effect of over 45% in size
- Condition notes: NIH/3T3 Gli1-Luc reporter, Shh antagonist, luminescence 24 h; series mostly up to 92.4 µM
Inconclusive results are not listed. Activity calls are given as the source filed them. The call rests on the fitted dose curve.
Pick one: active, inactive

// below: answered compounds
Smiles notation	Label value
CN1CC(=O)N2[C@H](c3ccc4c(c3)OCO4)c3[nH]c4ccccc4c3C[C@@H]2C1=O	inactive
COc1ccc(OC(=O)N(CC(=O)O)Cc2ccc(OCCc3nc(-c4ccccc4)oc3C)cc2)cc1	inactive
CC(C)C[C@H](NC(=O)[C@H](CCc1ccccc1)NC(=O)CN1CCOCC1)C(=O)N[C@@H](Cc1ccccc1)C(=O)N[C@@H](CC(C)C)C(=O)[C@@]1(C)CO1	active
O=C1Cc2cc(Cl)ccc2N1	inactive
C=C(C)[C@@H]1CCC2=CCC[C@@H](C)[C@]2(C)C1	active
C[C@@]12CCC[C@H]1[C@@H]1CC[C@H]3C[C@@H](O)CC[C@]3(C)[C@H]1CC2	active
Cc1cc(C)c(N)cc1C	inactive
CC(C)=CCC/C(C)=C/CC/C(C)=C/C(=O)OCC(=O)[C@@]1(O)CC[C@H]2[C@@H]3CCC4=CC(=O)C=C[C@]4(C)[C@H]3[C@@H](O)C[C@@]21C	active

For `Cc1ccc(OC(=O)c2ccccc2O)cc1` , what call appears in the results of this test?
inactive

For `C=C(C)C(=O)OCCCCCCCCCCCCC` , what call appears in the results of this test?
inactive

----------
- Measurement notes: qHTS assay to identify small molecule antagonists of the estrogen receptor beta (ER-beta) signaling pathway - cell viability counter screen (AID 1259382); note: nearly all actives have a fitted effect of over 55% in size
- Condition notes: ER-beta-UAS-bla HEK293T viability, CellTiter-Glo luminescence, 16 h; series mostly up to 92.4 µM
Inconclusive results are not listed. Activity calls are given as the source filed them. Calls follow the shape of the dose curve; as a rule, active = well fitted cell-killing curve with a large enough effect in the repeat runs; inconclusive = weak or mixed curves; inactive = flat fitted curve, though single readings scatter.
Pick one: T (active), F (inactive)

Compound	Label value
CC(=O)Oc1ccc([N+](=O)[O-])cc1CCl	F

For `Cc1ccco1` , what call appears in the results of this test?
F

For CN1C(=O)N(c2ccccc2Br)Cc2cnc(Nc3ccc4c(c3)OCC(CO)O4)nc21 (stereo not drawn) , what call appears in the results of this test?
T

----------
- Measurement notes: Caspase-3/7 induction in HepG2 cells by small molecules, qHTS assay (AID 1346978); note: nearly all actives have a fitted effect of over 15% in size
- Condition notes: HepG2 caspase-3/7 activation, Caspase-Glo luminescence, 17 h; series mostly up to 92.4 µM
Records with an inconclusive call do not appear. Active and inactive are the calls of the source. Calls follow the shape of the dose curve; as a rule, active = well fitted activation curve with a large enough effect in the repeat runs; inconclusive = weak or mixed curves; inactive = flat fitted curve, though single readings scatter.
Pick one: 1 (active), -1 (inactive)

Molecule	Label value
C[C@@H](O[C@H]1OCCN(Cc2n[nH]c(=O)[nH]2)[C@H]1c1ccc(F)cc1)c1cc(C(F)(F)F)cc(C(F)(F)F)c1	1

For `COC(=O)C1=C(C)NC(C)=C(C(=O)O[C@@H]2CCCN(Cc3ccccc3)C2)[C@@H]1c1cccc([N+](=O)[O-])c1` , what call appears in the results of this test?
-1

For `O=C=Nc1ccc(Cl)c(Cl)c1` , what call appears in the results of this test?
-1

For `O=c1cc(-c2ccccc2)oc2ccc3ccccc3c12` , what call appears in the results of this test?
-1

For `CCCCN(CCN(CCCC)C(=O)N1CCOCC1)C(=O)N1CCOCC1` , what call appears in the results of this test?
-1

For Nc1cccc2c1CN(C1CCC(=O)NC1=O)C2=O (configuration not stated) , what call appears in the results of this test?
-1

For `O=c1cc(-c2ccccc2)oc2cc(O)cc(O)c12` , what call appears in the results of this test?
-1

For `C=C/C(C)=C/C/C=C(\C)CCC=C(C)C` , what call appears in the results of this test?
-1

For C=C(C)CCCC(C)CCO (configuration not stated) , what call appears in the results of this test?
-1

----------
- Tested target: Thyrotropin receptor (Homo sapiens) (UniProt P16473)
- Sequence (P16473 whole entry, looked up): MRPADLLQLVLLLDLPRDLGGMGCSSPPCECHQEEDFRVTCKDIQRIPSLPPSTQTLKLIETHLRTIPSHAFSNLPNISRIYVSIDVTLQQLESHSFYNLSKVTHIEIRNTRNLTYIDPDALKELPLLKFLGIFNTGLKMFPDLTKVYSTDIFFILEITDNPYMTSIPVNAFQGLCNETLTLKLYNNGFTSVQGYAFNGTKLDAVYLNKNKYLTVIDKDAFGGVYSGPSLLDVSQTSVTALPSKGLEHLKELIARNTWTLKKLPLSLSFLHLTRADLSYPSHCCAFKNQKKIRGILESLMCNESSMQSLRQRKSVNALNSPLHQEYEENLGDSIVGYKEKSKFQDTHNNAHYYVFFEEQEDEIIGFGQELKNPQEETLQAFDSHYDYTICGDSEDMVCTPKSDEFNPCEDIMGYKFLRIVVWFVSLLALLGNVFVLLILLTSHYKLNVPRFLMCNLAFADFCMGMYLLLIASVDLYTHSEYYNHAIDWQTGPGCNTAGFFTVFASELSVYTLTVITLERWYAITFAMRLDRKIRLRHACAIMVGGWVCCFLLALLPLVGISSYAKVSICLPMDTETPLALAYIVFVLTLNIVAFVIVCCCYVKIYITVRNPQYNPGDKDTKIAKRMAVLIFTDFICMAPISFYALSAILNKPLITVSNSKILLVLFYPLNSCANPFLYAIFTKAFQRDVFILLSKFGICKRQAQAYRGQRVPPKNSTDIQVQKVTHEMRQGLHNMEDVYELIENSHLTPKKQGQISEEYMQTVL
- Measurement notes: qHTS assay to identify small molecule antagonists of the thyroid stimulating hormone receptor (TSHR) signaling pathway (AID 1259385); note: nearly all actives have a fitted effect of over 20% in size
- Condition notes: TSHR-HEK293 cAMP HTRF, TSH-stimulated antagonist mode; series mostly up to 92.4 µM
Results filed as inconclusive are left out. The source made the active and inactive calls. Calls follow the shape of the full dose curve.
Pick one: active, inactive

Smiles notation	Tested target	Label value
C[C@@H]1CN(CCCn2c3ccccc3c3ccccc32)C[C@H](C)N1	Thyrotropin receptor (Homo sapiens) (UniProt P16473)	active

For `C[C@H]1C[C@H](O)c2ccsc2S1(=O)=O` , what call appears in the results of this test?
inactive

For `O=c1c(O)c(-c2ccc(O)cc2)oc2cc(O)cc(O)c12` , what call appears in the results of this test?
inactive

For `CCOC(=O)/C=C/C(=O)OCC` , what call appears in the results of this test?
inactive

For `CC1=C(CC=O)C(C)(C)CCC1` , what call appears in the results of this test?
inactive

For `CC(=O)OCC[N+](C)(C)C` , what call appears in the results of this test?
inactive

For `CC1=Nc2ccc3ccccc3c2C1(C)C` , what call appears in the results of this test?
inactive

For `Cc1ccccc1N=C(N)Nc1ccccc1C` , what call appears in the results of this test?
inactive

For `CCOC(=O)c1ccccc1C(=C1C=C(Br)C(=O)C(Br)=C1)c1cc(Br)c(O)c(Br)c1` , what call appears in the results of this test?
inactive

For `CCC1(CO)COCOC1` , what call appears in the results of this test?
inactive

For `C1COC1` , what call appears in the results of this test?
inactive

For `C=C(C)[C@@H]1CCC2=CCC[C@@H](C)[C@]2(C)C1` , what call appears in the results of this test?
inactive

For `O=c1[nH]ncc2ccccc12` , what call appears in the results of this test?
inactive

For `Cc1[nH]cnc1CN1CCc2c(c3ccccc3n2C)C1=O` , what call appears in the results of this test?
inactive

----------
- Measurement notes: qHTS assay to identify small molecule agonists of the androgen receptor (AR) signaling pathway in the presence of an antagonist - cell viability counter screen (AID 1259379); note: nearly all actives have a fitted effect of over 25% in size
- Condition notes: MDA-kb2 viability, CellTiter-Fluor, 16 h; series mostly up to 92.4 µM
Inconclusive results are not listed. Active and inactive are the calls of the source. The call rests on the fitted dose curve; in most records, active means well fitted cell-killing curve with a large enough effect in the repeat runs; inconclusive means weak or mixed curves, or effect the other way; inactive means flat fitted curve, though single readings scatter.
Pick one: TRUE for active, FALSE for inactive

// below: answered molecules
Molecule	Label value
CCCCCCCCCCCCCCN(CCO)CCO	TRUE
CCC1(CO)COCOC1	FALSE
FC(F)(F)c1ccccc1Cl	FALSE
O=C(Nc1cccc2c(=O)cc(-c3nn[nH]n3)oc12)c1ccc(OCCCCc2ccccc2)cc1	FALSE
CCOC(=O)OC(C)OC(=O)[C@@H]1N2C(=O)[C@@H](NC(=O)[C@H](N)c3ccccc3)[C@H]2SC1(C)C (stereo partly specified)	FALSE
CCOC(=O)c1ccc(O)c(O)c1	FALSE
CCC(C)COC(C)=O (stereo unspecified)	FALSE
CC(C)C(O)(c1ccc(OC(F)(F)F)cc1)c1cncnc1 (stereo unspecified)	FALSE

For `COc1cc(C(=O)NCCCCCC(=O)O)cc(OC)c1OC` , what call appears in the results of this test?
FALSE
